Can you tell me OD450 at 1 nM antibody for the items I'm about to list?
- targetOrSystem: T1, murine GPC3-his protein (Sino Biological, Cat. No. 50989-M08B) (murine, UniProt Q8CFZ4 25-558)
- T1 construct: Bought protein; also called murine GPC3 protein
- T1 sequence (Q8CFZ4 25-558 limits assumed): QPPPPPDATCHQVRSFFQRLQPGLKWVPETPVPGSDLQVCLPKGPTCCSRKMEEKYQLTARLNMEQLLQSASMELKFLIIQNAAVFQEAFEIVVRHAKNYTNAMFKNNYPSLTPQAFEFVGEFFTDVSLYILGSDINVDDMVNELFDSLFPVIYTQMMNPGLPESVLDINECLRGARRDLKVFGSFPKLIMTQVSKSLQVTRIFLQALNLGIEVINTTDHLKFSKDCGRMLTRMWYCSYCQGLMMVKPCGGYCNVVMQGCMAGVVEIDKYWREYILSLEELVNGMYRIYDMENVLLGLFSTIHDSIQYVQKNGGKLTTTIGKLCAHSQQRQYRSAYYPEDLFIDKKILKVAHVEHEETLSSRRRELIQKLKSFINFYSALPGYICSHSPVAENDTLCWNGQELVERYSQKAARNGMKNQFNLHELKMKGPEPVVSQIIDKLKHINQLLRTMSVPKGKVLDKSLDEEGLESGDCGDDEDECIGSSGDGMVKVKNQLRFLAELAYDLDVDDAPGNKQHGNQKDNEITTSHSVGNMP
- protocolText: ELISA, coated murine GPC3-His;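 also: antigen coated on plates at 1 µg/mL, test antibody bound for 2 h at 37 °C, detected with HRP-conjugated secondary antibody and TMB substrate after acid stop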
Note to self: number, then unit, no commentary.

binder: F1.21.8 human-murine chimeric antibody (antibody, human IgG1, kappa, V domains shown) VH: EVQLQQSGPELVKPGASVKISCKTSGFLFTGHYMHWVKSSHGNILDWIGYIYPYNAISFYNQKFKGKATLTVDKSSNTAYMELRSLTSEDSAVYYCARGDYGNYVTAYWGQGTLVTVSA VL: DVLMTQTPLSLPVSLGDQASISCRSSQSIVHSSGNTYLEWYLQKPGQSPKLLIYKVSNRFSGVPDRFSGSGSGTDFTLKISRVEAEDLGVYYCFQGSHLPWTFGGGTKLDIKR
OD450 at 1 nM antibody: 1.12 OD450 nm

Moving on to the next binder.
Could you tell me which OD450 at 1 nM antibody is on file for F1.83.6 human-murine chimeric antibody (antibody, human IgG1, kappa, V domains shown) VH: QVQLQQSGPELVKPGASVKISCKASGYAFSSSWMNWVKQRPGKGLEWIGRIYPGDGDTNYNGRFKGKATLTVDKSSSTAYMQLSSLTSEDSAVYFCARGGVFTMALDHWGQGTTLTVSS VL: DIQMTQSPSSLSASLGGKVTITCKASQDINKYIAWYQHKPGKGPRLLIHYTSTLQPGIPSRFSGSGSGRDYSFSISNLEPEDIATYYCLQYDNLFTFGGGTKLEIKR ?
0.14 OD450 nm

Sourced from patent US20260116991A1
